# experiment.summary: Metabolite profiling in plasma by HPLC–LSC
# Type: in vivo, human
# measurement.setup: male, human, plasma, oral, 120 mg; read-out: Half-life of M-2, range between subjects
# Procedure: Blood and plasma: Blood samples (18.7 mL per each time point) were collected into nonbeaded lithium-heparinized tubes immediately pre-dose and at the following post-dose times: 0.5, 1, 1.5, 2, 2.5, 3, 4, 6, 9, 12, 16, 20, 24, 36, 48, 72, 96, 120, 144, 192, 240, and 288 h. For each sample, 1 mL of whole blood was stored at 4 °C for subsequent LSC and the remainder was processed for plasma. […] The individual samples were analyzed by HPLC with off-line radioactivity detection for metabolite profiling. […]
recorded.endpoint: half-life

What does the data say about its half-life? Entry: CNC(=O)c1cc(Oc2ccc(NC(=O)Nc3ccc(Cl)c(C(F)(F)F)c3)c(F)c2)cc[n+]1[O-]
11 to 33 h

Taken from paper PMC5754413.
